experimental-system: K-Ras G12D (Homo sapiens, UniProt P01116, G12D)
Construct: expressed in transfected cells; host or cells: 293H cells
Sequence (P01116 whole entry G12D): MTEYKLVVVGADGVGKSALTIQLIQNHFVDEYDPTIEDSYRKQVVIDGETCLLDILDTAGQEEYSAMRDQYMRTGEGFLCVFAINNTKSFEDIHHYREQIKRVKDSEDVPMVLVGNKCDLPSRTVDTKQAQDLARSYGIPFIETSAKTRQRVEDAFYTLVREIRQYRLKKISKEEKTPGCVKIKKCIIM
measurement-protocol: G-LISA Ras activation, 293H cells transfected with G12D mutant
Assay type: cell-based
cond: compound 1 hour
reported-endpoint: IC50

Given the molecule Cc1nc(C2CCOC2)sc1C(=O)Nc1nc(-c2ccc3c(c2)CCC(=O)N3Cc2cccnc2)cs1 (stereo not drawn) , what is its reported IC50?
4.9 µM

What measured IC50 goes with Cc1nc(C2CC2)oc1C(=O)Nc1nc(-c2ccc3c(c2)CCC(=O)N3CCc2ccccc2)cs1 ?
5.1 µM

What value of measured IC50 is listed for COCCCN1C(=O)CCc2cc(-c3csc(NC(=O)c4oc(C)nc4C)n3)ccc21 ?
5 µM

---

Tested on: HCC827 (K-Ras wild type cell line)
measurement-protocol: Viability assay (CellTiterBlue, 72 hr) HCC827
Format: cell-based
cond: Homo sapiens, GI50, CellTiterBlue, HCC827 K-Ras wild-type
pIC50: −log10 of the molar value.
reported-endpoint: pIC50

Query (molecule): CCn1cc(C(=O)Nc2nc(-c3ccc4c(c3)CCC(=O)N4)cs2)c(C(F)(F)F)n1 [Compound 39] ; field requested: pIC50
< 4.60

Find the recorded pIC50 belonging to Cn1cc(C(=O)Nc2nc(-c3ccc4c(c3)CCC(=O)N4)cs2)c(-c2ccccc2)n1 [Compound 29] and report it.
< 4.60

I am curious: what pIC50 value has been reported for Cc1nn(C(C)C)cc1C(=O)Nc1nc(-c2ccc3c(c2)CCC(=O)N3Cc2cccnc2)cs1 [Compound 116] ?
5.40

What measured pIC50 goes with COCCN1C(=O)CCc2cc(-c3csc(NC(=O)c4oc(C(C)C)nc4C)n3)ccc21 [Compound 111] ?
5.70

State the recorded pIC50 for this entry: Cn1nc2ccccc2c1C(=O)Nc1nc(-c2ccc3c(c2)CCC(=O)N3)cs1 [Compound 26]
5.22

What measured pIC50 goes with COc1cccc(CN2C(=O)CCc3cc(-c4csc(NC(=O)c5oc(C)nc5C)n4)ccc32)c1OC [Compound 93] ?
< 4.60

Returns the measured pIC50 for the input molecule. Input: Cc1nc(C2CCCCC2)oc1C(=O)Nc1nc(-c2ccc3c(c2)CCC(=O)N3Cc2cccnc2)cs1 [Compound 101]
< 4.60

Any idea what its pIC50 is? The molecule is COc1cc(Cl)cc(CN2C(=O)CCc3cc(-c4csc(NC(=O)c5oc(C)nc5C)n4)ccc32)c1 [Compound 78]
< 4.60

pIC50 for Cc1nc(C)c(C(=O)Nc2nc(-c3ccc4c(c3)CCC(=O)N4CCn3cncn3)cs2)o1 [Compound 108] ?
< 4.60

---

Tested on: phospho-ERK in Panc1 (G12D)
measurement-protocol: In-Cell Western phospho-ERK, Panc1
Assay type: cell-based
cond: Homo sapiens, PANC-1, 1 h; Panc1, one hour treatment; read-out: In-Cell Western Panc1 (G12D) Erk (P)
Could you please report measured EC50 for the items listed next?

Recorded EC50 of Cc1nc(C(=O)Nc2nc(-c3ccc4c(c3)CCC(=O)N4)cs2)c(C)o1 , please.
> 25 µM

EC50 lookup needed for CC(=O)Nc1nc(C)c(C(=O)Nc2nc(-c3ccc4c(c3)CCC(=O)N4)cs2)s1 , thanks.
> 25 µM

Reported EC50, compound Cc1cc(C(=O)Nc2nc(-c3ccc4c(c3)CCC(=O)N4)cs2)n(C)n1 : ____
> 25 µM

---

Field: pEC50. Provide a value for each of the compounds that follow.
Test system: phospho-ERK in Panc1 (G12D)
measurement-protocol: In-Cell Western phospho-ERK, Panc1
Assay type: cell-based
cond: Homo sapiens, PANC-1, 1 h; Panc1, one hour treatment; read-out: In-Cell Western Panc1 (G12D) Erk (P)
Recall that pEC50 is obtained by taking minus log10 of the concentration measured in molar.

API: value(readout=pEC50, system=phospho-ERK in Panc1 (G12D)) for record Cc1nc(C)c(C(=O)Nc2nc(-c3ccc4c(c3)CCC(=O)N4Cc3cccnc3)cs2)o1 [Compound 70]
5.00

State its pEC50 on phospho-ERK in Panc1 (G12D): Cc1nc(CNC(=O)OC(C)(C)C)sc1C(=O)Nc1nc(-c2ccc3c(c2)CCC(=O)N3)cs1 [Compound 143]
5.10

Hi! What's the reported pEC50 for Cn1cc(C(=O)Nc2nc(-c3ccc4c(c3)CCC(=O)N4)cs2)c(C(F)(F)F)n1 [Compound 30] on phospho-ERK in Panc1 (G12D)?
5.10

---

Assign EC50 to each entry below.
System: phospho-ERK in Panc1 (G12D)
measurement-protocol: In-Cell Western phospho-ERK, Panc1
Type: cell-based
cond: Homo sapiens, PANC-1, 1 h; Panc1, one hour treatment; read-out: In-Cell Western Panc1 (G12D) Erk (P)

I would be grateful if you could share the reported EC50 for Cc1nc(C(C)C)oc1C(=O)Nc1nc(-c2ccc3c(c2)CCC(=O)N3)cs1 [Compound 7] .
> 25 µM

Item under review: COc1nn(C)cc1C(=O)Nc1nc(-c2ccc3c(c2)CCC(=O)N3)cs1 [Compound 42] . Reported EC50?
> 25 µM

Quick one: EC50 for Cn1nccc1C(=O)Nc1nc(-c2ccc3c(c2)CCC(=O)N3)cs1 [Compound 51] ?
> 25 µM

---

Could you please report measured IC50 for the items listed next?
Tested on: Ishikawa (K-Ras wild type cell line)
measurement-protocol: Viability assay (CellTiterBlue, 72 hr) Ishikawa
Format: cell-based
cond: Homo sapiens, GI50, CellTiterBlue, Ishikawa K-Ras wild-type

Recall the recorded IC50 for Cc1nc(C)c(C(=O)Nc2nc(-c3ccc4c(c3)CCC(=O)N4Cc3ccc4ccccc4c3)cs2)o1 with Ishikawa (K-Ras wild type cell line) and state it.
> 25 µM

What reported IC50 corresponds to Cc1nc(C)c(C(=O)Nc2nc(-c3ccc4c(c3)CCC(=O)N4Cc3cccnc3C#N)cs2)o1 on Ishikawa (K-Ras wild type cell line)?
> 25 µM

Reported IC50 for Ishikawa (K-Ras wild type cell line), given CC(C)c1nn(C)cc1C(=O)Nc1nc(-c2ccc3c(c2)CCC(=O)N3)cs1 ?
> 25 µM

---

Tested on: Panc10.05-G12D
measurement-protocol: Viability assay (CellTiterBlue, 72 hr) Panc10.05
Assay type: cell-based
cond: Homo sapiens, Panc1005, GI50, CellTiterBlue, Panc10.05 K-Ras G12D, read-out: 72 hr Cell Viability Panc10.05 (G12D)
Method: Viability assays were performed on exemplary compounds and Table 2 below lists exemplary results for selected compounds tested on K-Ras wild type cell lines (Ishikawa, U87-MG, HCC827, and A375) and various K-Ras mutant cell lines (Panc1-G12D; Panc10.05-G12D; HCT116-G31D). […] Cells are counted and seeded at 1000 cells/36 ul medium/well into 384-well microplates. […] After 3 hr, fluorescence (Ex550/Em590) is determined on the Victor Plate Reader (Perkin Elmer). […]
reported-endpoint: IC50 (µM)
Number only, in µM; omit the unit.

Any idea what its IC50 is? The compound is Cc1nc(C2CCCCC2)oc1C(=O)Nc1nc(-c2ccc3c(c2)CCC(=O)N3Cc2cccnc2)cs1
4

Using the record for Cc1cc(C)c(C(=O)Nc2nc(-c3ccc4c(c3)CCC(=O)N4)cs2)cn1 , report its IC50.
3

Given the entry CCn1nc(C)c(C(=O)Nc2nc(-c3ccc4c(c3)CCC(=O)N4)cs2)c1C , report its measured IC50.
19

Dear colleague, I am looking for the recorded IC50 of the following compound: CCn1nc(C2CC2)cc1C(=O)Nc1nc(-c2ccc3c(c2)CCC(=O)N3)cs1
3

Quick one: IC50 of COCCN1C(=O)CCc2cc(-c3csc(NC(=O)c4c(C)nn(C)c4C)n3)ccc21 ?
0.802

Bench note: what IC50 did CCc1nc(C)c(C(=O)Nc2nc(-c3ccc4c(c3)CCC(=O)N4Cc3cccnc3)cs2)s1 show?
3

---

Provide the recorded IC50 for the entries that follow.
experimental-system: K-Ras G12D (Homo sapiens, UniProt P01116, G12D)
Construct: expressed in transfected cells; host or cells: 293H cells
measurement-protocol: G-LISA Ras activation, 293H cells transfected with G12D mutant
Assay type: cell-based
cond: compound 1 hour
Give the value, in units of µM, as a plain number.

# input compound: Cc1nc(C)c(C(=O)Nc2nc(-c3ccc4c(c3)CCC(=O)N4Cc3cncc4ccccc34)cs2)o1 ; wanted: its IC50
24.6

Return reported IC50; argument: Cc1nc(C2CCOC2)oc1C(=O)Nc1nc(-c2ccc3c(c2)CCC(=O)N3)cs1 (stereo not shown)
22

For Cc1nc(C)c(C(=O)Nc2nc(-c3ccc4c(c3)CCC(=O)N4CC3CC3)cs2)o1 , what is its reported IC50?
10.3

# lookup: IC50 of Cc1nn(C(C)C)cc1C(=O)Nc1nc(-c2ccc3c(c2)CCC(=O)N3)cs1
7

Reference for the values: patent US10344026B2
